Test system: L1210
experimental-details: Cytotoxicity against mouse L1210 cells after 48 hrs by MTT method
Type: functional, cell-based
conditions-used: L1210, 48 h
Kindly apply the following: satisfied if IC50 is less than 50 µM, not satisfied in every other case.

> print(dat)
                                   compound  assigned.class
1  CC[C@]12CCC[N+]3([O-])C[C@@H](Br)[C@]4(C(=Nc5ccccc54)[C@@](Cl)(C(=O)OC)C1)[C@H]23 (some centres not stated)       satisfied
2  CC[C@]12CCC[N+]3([O-])CC[C@]4(C(=Nc5ccccc54)[C@@](Cl)(C(=O)OC)C1)[C@H]23 (some centres not stated)       satisfied
3  CC[C@]12CCCN3[C@@H](OC)C[C@]4(C(=Nc5ccccc54)[C@@](Cl)(C(=O)OC)C1)[C@@H]32       satisfied
4  CC[C@]12CCCN3C[C@@H](Br)[C@@]4(c5ccccc5N[C@H]4[C@@](Cl)(C(=O)OC)C1)[C@@H]32       satisfied
5  CC[C@]12CCCN3CC[C@@]4(c5ccccc5N5[C@H]4[C@]5(C(=O)OC)C1)[C@@H]32   not satisfied
6  COc1cccc2c1C(=O)c1c(O)c3c(c(O)c1C2=O)C[C@@](O)(C(=O)CO)C[C@@H]3O[C@H]1C[C@H](N)[C@H](O)[C@H](C)O1       satisfied

Ask: # check: IC50 < 50 µM for `CC[C@]12CCCN3C[C@@H](Br)[C@@]4(c5ccccc5N5[C@H]4[C@]5(C(=O)OC)C1)[C@@H]32`
Reply: not satisfied
